Tested on: MV4-11 cells
Assay: Antiproliferative assay in vitro (MTT), 72 h
Format: cell-based, human
Details: Homo sapiens, MV4-11; leukaemia cells, MTT, 72 h exposure, mean ± SD
Please respond with Y when measured IC50 is strictly beneath 200 µM, and with N in all other cases.

Previously resolved entries follow.
query: Is IC50 of `C[N+](C)(C)CCOP(=O)([O-])OC[C@@H](COC(=O)C=Cc1ccccc1)OC(=O)C=Cc1ccccc1` strictly below 200 µM?
result: N

query: Is IC50 of CCCCCCCCCCCCCCCC(=O)O[C@H](COC(=O)C=Cc1ccccc1)COP(=O)([O-])OCC[N+](C)(C)C [Compound 10a] strictly below 200 µM?
result: Y

query: Is IC50 of `COc1cccc(C=CC(=O)O)c1` strictly below 200 µM?
result: N

query: Is IC50 of `COc1cccc(C=CC(=O)OC[C@H](COP(=O)([O-])OCC[N+](C)(C)C)OC(=O)C=Cc2cccc(OC)c2)c1` strictly below 200 µM?
result: Y

query: Is IC50 of `CCCCCCCCCCCCCCCC(=O)OC[C@H](COP(=O)([O-])OCC[N+](C)(C)C)OC(=O)C=Cc1ccccc1` strictly below 200 µM?
result: Y

Continuing:
query: Is IC50 of CCCCCCCCCCCCCCCC(=O)O[C@H](COC(=O)C=Cc1cccc(OC)c1)COP(=O)([O-])OCC[N+](C)(C)C [Compound 10b] strictly below 200 µM?
result: N

query: Is IC50 of `CCCCCCCCCCCCCCCC(=O)OC[C@H](COP(=O)([O-])OCC[N+](C)(C)C)OC(=O)C=Cc1cccc(OC)c1` strictly below 200 µM?
result: Y

query: Is IC50 of `O=C(O)/C=C/c1ccccc1` strictly below 200 µM?
result: N

---

System: A549 cells
Assay: Antiproliferative assay in vitro (SRB), 72 h
Type: cell-based, human
Conditions: lung cancer cells, 72 h exposure, mean ± SD, read-out: IC50 A-549
METRIC_NAME: IC50 (µM)
Give bare numbers, in µM.

query: I'd like to know its IC50. The compound in question is N.N.[Cl][Pt][Cl] [Cisplatin, cisplatin, reference compound]
result: 8.6

---

Tested on: LoVo/DX cells
Assay: Antiproliferative assay in vitro (SRB), 72 h
Assay type: cell-based, human
Conditions: doxorubicin-resistant LoVo/DX cell line versus LoVo
METRIC_NAME: Resistance index (RI)
Numbers only.

query: I'd like to know its Resistance index (RI). The compound in question is `COc1cccc(C=CC(=O)OC[C@H](COP(=O)([O-])OCC[N+](C)(C)C)OC(=O)C=Cc2cccc(OC)c2)c1`
result: 0.15

query: I'd like to know its Resistance index (RI). The compound in question is CCCCCCCCCCCCCCCC(=O)O[C@H](COC(=O)C=Cc1cccc(OC)c1)COP(=O)([O-])OCC[N+](C)(C)C [Compound 10b]
result: 1.2

query: I'd like to know its Resistance index (RI). The compound in question is CCCCCCCCCCCCCCCC(=O)O[C@H](COC(=O)C=Cc1ccccc1)COP(=O)([O-])OCC[N+](C)(C)C [Compound 10a]
result: 1.05

Please examine the following record next.
query: I'd like to know its Resistance index (RI). The compound in question is `CCCCCCCCCCCCCCCC(=O)OC[C@H](COP(=O)([O-])OCC[N+](C)(C)C)OC(=O)C=Cc1cccc(OC)c1`
result: 0.99
